Reported IC50 values follow for various molecules
- experimental.target: Lp-PLA2 in human plasma (Homo sapiens)
- Construct: from tissue; host or cells: pooled human plasma
- Sequence (Q13093 22-441): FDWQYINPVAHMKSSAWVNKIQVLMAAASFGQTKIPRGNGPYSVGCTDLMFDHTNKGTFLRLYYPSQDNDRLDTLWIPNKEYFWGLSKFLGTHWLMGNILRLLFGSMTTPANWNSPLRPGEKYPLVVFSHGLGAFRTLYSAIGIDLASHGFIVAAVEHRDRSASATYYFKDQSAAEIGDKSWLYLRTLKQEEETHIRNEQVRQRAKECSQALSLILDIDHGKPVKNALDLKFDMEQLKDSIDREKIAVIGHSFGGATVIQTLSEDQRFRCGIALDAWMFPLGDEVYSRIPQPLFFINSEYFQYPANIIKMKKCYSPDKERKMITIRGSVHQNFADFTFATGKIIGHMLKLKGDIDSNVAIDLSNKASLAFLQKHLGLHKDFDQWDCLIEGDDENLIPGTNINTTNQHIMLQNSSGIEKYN
- method.notes: (3a) Lp-PLA2 human plasma Thio-PAF assay
- Format: biochemical
- condition.context: (3a) Thio-PAF assay, pooled human plasma; Examples 1-265 and 413-430 were tested here; read-out: pIC50 in the Lp-PLA2 human plasma assay (converted)

// below: answered molecules
Name the recorded IC50 for O=c1nc(OCc2ccc(F)cc2F)cc2n1C[C@@H]1COCN21 .
≤ 10 µM

// same read-out, input: Cc1ccc(Oc2c(F)cc(COc3cc4n(c(=O)n3)C[C@@H]3COCN43)cc2F)cn1
≤ 10 µM

// same read-out, input: CN1CCN2c3cc(OCc4cc(F)c(Oc5ccnc(C(F)(F)F)c5)c(F)c4)nc(=O)n3CC2C1 (stereo not drawn)
≤ 0.1 µM

// same read-out, input: O=c1nc(OCc2cnc(Oc3ccc(Cl)c(C(F)(F)F)c3)c(F)c2)cc2n1CC1CCCN21 (stereo not drawn)
≤ 10 µM

// same read-out, input: O=c1nc(OCc2ccc(F)c(F)c2)cc2n1C[C@@H]1CCCCN21
≤ 10 µM

---
Name the recorded IC50 for O=c1nc(OCc2ccc(F)cc2F)cc2n1C[C@@H]1CCOCN21 .
≤ 10 µM

// same read-out, input: O=c1nc(OCc2cc(F)c(F)cc2F)cc2n1C[C@H]1CCCN21
≤ 10 µM

// same read-out, input: O=c1nc(OCc2cc(F)c(Oc3ccnc(C(F)(F)F)c3)c(F)c2)cc2n1C[C@H]1COCCN21
≤ 0.1 µM

// same read-out, input: O=c1nc(OCc2cccc(F)c2)cc2n1C[C@@H]1CCOCN21
≤ 10 µM

// same read-out, input: N#Cc1cccc(COc2cc3n(c(=O)n2)CC2CCCCN32)c1 (stereo not drawn)
≤ 10 µM

// same read-out, input: O=c1nc(OCc2ccc(F)cc2F)cc2n1C[C@H]1COCN21
≤ 10 µM

// same read-out, input: O=c1nc(OCc2cc(F)cc(F)c2)cc2n1C[C@@H]1CCCCN21
≤ 10 µM

// same read-out, input: O=c1nc(OCc2cc(F)c(F)c(F)c2)cc2n1C[C@H]1CCCN21
≤ 0.1 µM

// same read-out, input: Cn1cc(Oc2c(F)cc(COc3cc4n(c(=O)n3)CC3COCCN43)cc2F)cn1 (stereo not drawn)
≤ 0.1 µM

// same read-out, input: O=c1nc(OCCc2cccc(F)c2)cc2n1C[C@@H]1COCCN21
≤ 10 µM

// same read-out, input: O=c1nc(OCc2cc(F)c(CCCF)c(F)c2)cc2n1CC1CCCN21 (stereo not drawn)
≤ 10 µM

// same read-out, input: Cc1cc(COc2cc3n(c(=O)n2)CC2CCCCN32)cc(F)c1F (stereo not drawn)
≤ 10 µM

// same read-out, input: O=c1nc(OCc2cc(F)c(Oc3ccnc(C(F)(F)F)c3)c(F)c2)cc2n1CC1OCCCN21 (single isomer, unassigned) [Example E163]
≤ 10 µM

// same read-out, input: N#Cc1ccc(CCOc2cc3n(c(=O)n2)C[C@H]2COCCN32)cc1
≤ 10 µM

// same read-out, input: O=c1nc(OCc2ccc(Oc3ccnc(C(F)(F)F)c3)c(F)c2)cc2n1CC1CCCCN21 (stereo not drawn) [Example E17]
≤ 0.1 µM

// same read-out, input: O=c1nc(OCc2cc(F)c(Oc3ccc(F)c(F)c3)c(F)c2)cc2n1C[C@@H]1CCCN21
≤ 10 µM

// same read-out, input: O=c1nc(OCc2cc(F)c(Oc3cnc(C(F)(F)F)nc3)c(F)c2)cc2n1CC1CCCN21 (stereo not drawn)
≤ 0.1 µM
